Hello, the source for this data is ChEMBL document CHEMBL1137002, in case you need it.

# measurement.notes: Therapeutic index, ratio of IC50 for human HeLa cells to EC50 for Giardia lamblia trophozoites isolates
# Type: cell-based
# measurement.parameters: read-out: Ratio IC50/EC50
Hi there, I'd appreciate the recorded selectivity ratio for every entry that follows.
Answers are plain numbers.

// below: answered compounds
Cn1c([N+](=O)[O-])cnc1C(O)C(O)c1ccc(Br)cc1 (stereo not drawn)	208
Cn1c([N+](=O)[O-])cnc1/C=C/c1cccc(I)c1	339
Cn1c([N+](=O)[O-])cnc1/C=C/c1ccc(Cl)cc1	1740
Cc1ccccc1/C=C/c1ncc([N+](=O)[O-])n1C	1350
Cn1c([N+](=O)[O-])cnc1/C=C/c1ccc2c(c1)OCO2	1070
Cn1ccnc1/C=C/c1ncc([N+](=O)[O-])n1C	1200

Field: next compound
Q) // selectivity ratio lookup, key: Cn1c([N+](=O)[O-])cnc1/C=C/c1cccs1
A) 1120
